TESTED ON: Nav1.7 (or SCN9A) channel (Homo sapiens, UniProt Q15858)
Construct: expressed in transfected cells
Sequence (Q15858 whole entry): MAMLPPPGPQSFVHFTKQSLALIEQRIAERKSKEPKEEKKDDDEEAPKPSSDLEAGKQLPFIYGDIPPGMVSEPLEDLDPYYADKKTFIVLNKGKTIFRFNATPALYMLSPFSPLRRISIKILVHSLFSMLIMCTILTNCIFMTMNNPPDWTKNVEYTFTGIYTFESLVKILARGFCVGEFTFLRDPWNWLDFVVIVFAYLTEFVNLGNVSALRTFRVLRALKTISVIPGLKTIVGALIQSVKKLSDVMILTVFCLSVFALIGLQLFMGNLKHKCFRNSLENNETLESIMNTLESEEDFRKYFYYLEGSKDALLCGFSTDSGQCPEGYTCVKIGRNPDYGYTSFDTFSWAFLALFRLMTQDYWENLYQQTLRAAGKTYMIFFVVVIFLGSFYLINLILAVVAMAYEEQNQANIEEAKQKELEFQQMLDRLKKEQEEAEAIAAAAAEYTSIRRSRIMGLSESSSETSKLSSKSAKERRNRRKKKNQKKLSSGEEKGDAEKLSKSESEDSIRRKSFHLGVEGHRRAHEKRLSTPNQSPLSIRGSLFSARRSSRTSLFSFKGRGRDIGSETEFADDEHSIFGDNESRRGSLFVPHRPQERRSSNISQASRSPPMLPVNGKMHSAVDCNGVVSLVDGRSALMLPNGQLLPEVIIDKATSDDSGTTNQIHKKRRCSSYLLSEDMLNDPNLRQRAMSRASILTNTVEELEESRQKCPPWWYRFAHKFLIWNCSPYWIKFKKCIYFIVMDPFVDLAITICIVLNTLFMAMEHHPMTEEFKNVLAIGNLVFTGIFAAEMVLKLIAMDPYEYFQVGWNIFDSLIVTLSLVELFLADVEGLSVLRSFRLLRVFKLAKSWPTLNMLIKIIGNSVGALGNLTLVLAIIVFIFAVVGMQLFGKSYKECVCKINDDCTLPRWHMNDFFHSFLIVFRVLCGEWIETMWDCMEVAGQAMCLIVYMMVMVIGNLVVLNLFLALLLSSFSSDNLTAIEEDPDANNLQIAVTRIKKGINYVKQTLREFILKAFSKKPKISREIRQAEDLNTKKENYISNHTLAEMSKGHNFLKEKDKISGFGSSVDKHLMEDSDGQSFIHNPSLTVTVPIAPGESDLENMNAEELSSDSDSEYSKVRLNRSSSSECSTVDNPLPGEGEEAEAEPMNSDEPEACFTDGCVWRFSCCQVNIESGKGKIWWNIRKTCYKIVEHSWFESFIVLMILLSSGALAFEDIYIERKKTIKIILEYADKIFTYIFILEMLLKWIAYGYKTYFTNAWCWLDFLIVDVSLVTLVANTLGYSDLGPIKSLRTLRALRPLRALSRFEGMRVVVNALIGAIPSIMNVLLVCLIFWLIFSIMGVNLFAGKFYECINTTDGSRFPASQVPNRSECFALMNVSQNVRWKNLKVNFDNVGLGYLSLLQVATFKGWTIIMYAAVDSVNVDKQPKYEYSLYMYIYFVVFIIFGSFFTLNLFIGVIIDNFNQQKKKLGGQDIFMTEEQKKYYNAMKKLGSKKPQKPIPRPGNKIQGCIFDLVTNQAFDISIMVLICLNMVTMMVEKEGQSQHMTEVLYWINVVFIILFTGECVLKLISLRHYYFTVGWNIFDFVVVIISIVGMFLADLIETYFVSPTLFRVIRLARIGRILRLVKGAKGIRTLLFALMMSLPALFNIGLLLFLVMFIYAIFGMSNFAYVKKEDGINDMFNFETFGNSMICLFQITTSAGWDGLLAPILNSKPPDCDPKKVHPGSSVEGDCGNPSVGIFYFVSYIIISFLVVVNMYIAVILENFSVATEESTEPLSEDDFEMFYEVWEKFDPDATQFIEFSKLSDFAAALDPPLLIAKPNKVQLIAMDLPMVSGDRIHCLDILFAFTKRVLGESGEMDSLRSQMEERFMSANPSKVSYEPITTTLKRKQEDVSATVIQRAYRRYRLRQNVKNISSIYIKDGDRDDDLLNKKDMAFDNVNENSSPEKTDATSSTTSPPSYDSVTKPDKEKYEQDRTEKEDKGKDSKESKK
PROTOCOL NOTES: Nav1.7 (hSCN9A) block in HEK cells, PatchXpress 7000 automated electrophysiology, estimated IC50 (EIC50)
Assay type: cell-based
TEST CONDITIONS: PatchXpress assay; HEK cells stably transfected with hSCN9A, voltage-clamped at V1/2 of inactivation
pIC50: −log10 of the molar value.
ENDPOINT NAME: pIC50

CC(C)COc1ncc(Oc2ccc(C(=O)NS(C)(=O)=O)cc2)cc1Cl [Example 14]; 6.85
CC(C)Oc1ncc(Oc2ccc(C(=O)NS(C)(=O)=O)cc2F)cc1Cl [Example 33]; 6.15
CS(=O)(=O)NC(=O)c1cc(F)c(Oc2cnc(OCC(F)(F)C(F)F)c(Cl)c2)cc1F [Example 45]; 6.96
C[C@@H]1CCCN1c1ncc(Oc2cc(F)c(C(=O)NS(C)(=O)=O)cc2F)cc1Cl [Example 132]; 6.80
CN1CCC(Oc2ncc(Oc3cc(F)c(C(=O)NS(C)(=O)=O)cc3Cl)cc2Cl)CC1 [Example 30]; 5.12

[1] CS(=O)(=O)NC(=O)c1cc(Cl)c(Oc2cnc(OCC(F)(F)C(F)(F)F)c(Cl)c2)cc1F [Example 56]
[2] CS(=O)(=O)NC(=O)c1cc(Cl)c(Oc2cnc(OCC(F)F)c(Cl)c2)cc1F [Example 52]
Query block: Lower value for measured pIC50? Options: 1 , 2 Select an item and report its label.
Result block: 2
(2: 6.80, 1: 7.89)
